test system: Staphylococcus aureus; experiment: Antibacterial activity against Staphylococcus aureus ATCC 29213 after 24 to 96 hrs by twofold serial dilution method; format: functional
Listing of recorded MIC by entry.

Example entries begin here.
CC(C)C[C@@H]1NC(=O)[C@H](CCCN)NC(=O)[C@H](C(C)C)NC(=O)[C@H](Cc2c[nH]c3ccccc23)NC(=O)[C@H](CC(=O)O)NC(=O)[C@H](CC(N)=O)NC(=O)[C@@H](Cc2ccccc2)NC(=O)[C@H](Cc2c[nH]c3ccccc23)NC(=O)[C@@H]2O[C@H](CNC1=O)[C@@H](OCc1ccccc1)[C@@H]2O :: > 64 µg/mL
CC(C)C[C@@H]1NC(=O)[C@H](CCCN)NC(=O)[C@H](C(C)C)NC(=O)[C@H](Cc2c[nH]c3ccccc23)NC(=O)[C@@H](CC(=O)O)NC(=O)[C@H](CC(N)=O)NC(=O)[C@H](Cc2ccccc2)NC(=O)[C@H](Cc2c[nH]c3ccccc23)NC(=O)[C@@H]2CCCN2C(=O)[C@@H](Cc2ccc(O)cc2)NC1=O :: > 64 µg/mL
CC(C)C[C@@H]1NC(=O)[C@H](CCCN)NC(=O)[C@H](C(C)C)NC(=O)[C@H](Cc2c[nH]c3ccccc23)NC(=O)[C@H](CC(=O)O)NC(=O)[C@H](CC(N)=O)NC(=O)[C@@H](Cc2ccccc2)NC(=O)[C@H](Cc2c[nH]c3ccccc23)NC(=O)[C@@H]2CCCN2C(=O)[C@@H](Cc2ccc(O)cc2)NC1=O [LOLOATIN C] :: 8 µg/mL

// sample CC(C)C[C@@H]1NC(=O)[C@H](CCCN)NC(=O)[C@H](C(C)C)NC(=O)[C@@H]2O[C@H](CNC(=O)[C@H](CC(N)=O)NC(=O)[C@@H](Cc3ccccc3)NC(=O)[C@H](Cc3c[nH]c4ccccc34)NC(=O)[C@@H]3CCCN3C(=O)[C@@H](Cc3ccc(O)cc3)NC1=O)[C@@H](OCc1ccccc1)[C@@H]2O , its MIC was > 64 µg/mL
